These data points were gathered from patent US20180244785A1.

Biological target: T1, soluble FGFR4 receptor protein (human, UniProt P22455 144-369)
T1 sequence: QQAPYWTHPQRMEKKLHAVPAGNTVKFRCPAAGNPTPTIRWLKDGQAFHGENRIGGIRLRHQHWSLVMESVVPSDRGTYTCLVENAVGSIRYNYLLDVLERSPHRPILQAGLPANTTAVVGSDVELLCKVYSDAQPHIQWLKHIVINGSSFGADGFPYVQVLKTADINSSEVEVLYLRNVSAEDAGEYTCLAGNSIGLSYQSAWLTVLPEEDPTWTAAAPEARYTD
Assay: BLI Octet RED96, antibody on anti-hIgG Fc tip
property: pKd
Answers are plain numbers, as −log10 of the molar value.

binder	pKd
Vk1 combined with the VH of Ab15 (antibody, V domains shown, captured on anti-human IgG Fc tips) VH: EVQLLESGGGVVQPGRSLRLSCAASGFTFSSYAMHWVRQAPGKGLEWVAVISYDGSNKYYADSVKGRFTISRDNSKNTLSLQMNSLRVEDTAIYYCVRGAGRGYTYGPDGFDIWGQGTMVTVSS VL: DIVMTQTPLSLSVTPGQPASISCTSSRSLLHSDGKTYLYWYLQKPGQPPQLLIYELSNRFSGVPDRFSGSGSRTDFTLKISRVEAEDVGVYYCMQYIEAPLTFGGGTKVEIK	8.06

Input: Note down pKd recorded for Vk9 combined with the VH of Ab15 (antibody, V domains shown, captured on anti-human IgG Fc tips) VH: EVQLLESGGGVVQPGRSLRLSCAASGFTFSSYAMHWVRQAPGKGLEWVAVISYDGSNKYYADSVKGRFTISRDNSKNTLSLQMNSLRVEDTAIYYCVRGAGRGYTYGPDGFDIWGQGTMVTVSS VL: DIVMTQSPDSLAVSLGERATINCKSSQSLLHSDGKTYVYWYQQKPGQPPKLLIYELSNRFSGVPDRFSGSGSGTDFTLTISSLQAEDVAVYYCMQYIEAPLTFGGGTKVEIK
Output: 8.31
